- study-target: Sphingosine 1-phosphate receptor 3 (Homo sapiens) (UniProt Q99500)
- Sequence (Q99500 whole entry): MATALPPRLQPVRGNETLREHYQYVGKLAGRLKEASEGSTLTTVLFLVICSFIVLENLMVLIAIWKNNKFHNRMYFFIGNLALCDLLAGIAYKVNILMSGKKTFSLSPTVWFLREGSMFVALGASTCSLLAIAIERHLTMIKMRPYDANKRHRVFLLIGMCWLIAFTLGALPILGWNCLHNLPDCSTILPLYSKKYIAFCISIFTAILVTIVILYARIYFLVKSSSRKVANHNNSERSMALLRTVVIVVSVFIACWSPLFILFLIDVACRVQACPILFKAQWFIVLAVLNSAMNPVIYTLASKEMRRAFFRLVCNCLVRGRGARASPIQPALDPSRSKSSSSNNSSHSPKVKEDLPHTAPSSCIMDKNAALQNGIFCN
- assay: Inhibitory effect towards Sphingosine 1-phosphate receptor Edg-3 (EDG3)
- Set-up: concentration or dose not given beside the values
- condition-notes: concentration not given here
outcome-measure: inhibition (%)
Answers are plain numbers, in %.

CCCCCCCCCCC1NC(C(=O)O)CS1 (stereo not given) = 26.4
CCCCCCCCCC1NC(C(=O)O)CS1 (stereo not given) = 14.8
CCCCCCCCCCC1NC(C(=O)O)CCS1 (stereo not given) = 9.3

Can you give me inhibition for all of these, one by one?
1. CCCCCCCCCCCCC1NC(C(=O)O)CCS1 (stereo not given)
2. CCCCCCCCCCCCC1NC(C(=O)O)CS1 (stereo not given)

1. 0.3
2. 15.9

----------
Give inhibition for every item shown.
- study-target: Sphingosine 1-phosphate receptor 3 (Homo sapiens) (UniProt Q99500)
- assay: Inhibitory effect towards Sphingosine 1-phosphate receptor Edg-3 (EDG3)
- Design: concentration or dose not given beside the values
- condition-notes: concentration not given here
Answers are plain numbers, in %.

Example molecules with recorded inhibition:
CCCCCCCc1cccc(C2N[C@H](C(=O)O)CS2)c1 (stereo partly drawn) = 43.4
CCCCCCCCCCCC1NC(C(=O)O)CCS1 (stereo not drawn) = 9.4
CCCCCCCCCc1ccc(C2N[C@H](C(=O)O)CS2)cc1 (stereo partly drawn) = 21.9
CCCCCCCCCCCCCC1NC(C(=O)O)CCS1 (stereo not drawn) = 5.9
CCCCCCC1NC(C(=O)O)CS1 (stereo not drawn) = 0
CCCCCCCCCc1cccc(C2N[C@H](C(=O)O)CS2)c1 (stereo partly drawn) = 37.2
CCCCCCCc1ccc(C2N[C@H](C(=O)O)CS2)cc1 (stereo partly drawn) = 42.9
CCCCCCCCCC[C@H]1N[C@H](C(=O)O)CS1 = 34.5
CCCCCCCCCC1NC(C(=O)O)CCS1 (stereo not drawn) = 6.9
CCCCCc1ccc(C2N[C@H](C(=O)O)CS2)cc1 (stereo partly drawn) = 13

Can you give me inhibition for all of these, one by one?
1. CCCCCc1cccc(C2N[C@H](C(=O)O)CS2)c1 (stereo partly drawn)
2. CCCCCCCCCCC[C@H]1N[C@H](C(=O)O)CS1

1. 9.9
2. 37.6

// fetch inhibition for CCCCCCCCCCCCCC1NC(C(=O)O)CS1 (stereo not drawn) ; system: Sphingosine 1-phosphate receptor 3 (Homo sapiens) (UniProt Q99500) 6.6
